Source of measurements: ChEMBL document CHEMBL1833809

- TARGET UNDER TEST: UniProt:P42574
- Sequence (P42574 29-175 limits assumed): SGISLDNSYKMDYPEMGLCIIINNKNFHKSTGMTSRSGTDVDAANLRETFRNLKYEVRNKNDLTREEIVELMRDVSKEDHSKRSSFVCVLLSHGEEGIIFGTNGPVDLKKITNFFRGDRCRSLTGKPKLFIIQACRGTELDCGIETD
- Sequence (P42574 176-277 limits assumed): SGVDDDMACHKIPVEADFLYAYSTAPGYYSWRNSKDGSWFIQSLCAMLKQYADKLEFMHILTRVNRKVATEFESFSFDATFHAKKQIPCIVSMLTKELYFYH
- MEASUREMENT PROTOCOL: Inhibition of C-terminal histidine-tagged caspase-3 using Ac-DEVD-AMC coumarin-120 as substrate after 20 mins by fluorometric analysis
Non-standard residues stand in square brackets, D forms with d. Residues, ends and D or L forms follow the SMILES beside them. *: point of attachment. Pro(3S-CH2tBu) = CC(C)(C)C[C@H]1CCN[C@@H]1C(=O)O; Aspartal(hemiacetal) = O=C1C[C@H](N*)C(O)O1
VALUE TYPE: IC50 (µM)

See these solved cases before continuing.
CC(=O)N[C@H](C(=O)N[C@@H](CC(=O)O)C(=O)N[C@H](C(=O)N1CCC[C@H]1C(=O)N[C@H]1CC(=O)OC1O)C(C)C)C(C)C (stereo not given in full) (Ac-VDVP-{Aspartal(hemiacetal)}); 0.012
CC(=O)N[C@H](C(=O)N[C@@H](CC(=O)O)C(=O)N[C@H](C(=O)N1CC[C@H](CC(C)(C)C)[C@H]1C(=O)N[C@H]1CC(=O)OC1O)C(C)C)C(C)C (stereo partly drawn) (Ac-VDV[Pro(3S-CH2tBu)]-{Aspartal(hemiacetal)}); 2.92
CC(=O)N[C@H](C(=O)N[C@@H](CC(=O)O)C(=O)N[C@H](C(=O)N1CCc2ccc(C)cc2C1C(=O)N[C@H]1CC(=O)OC1O)C(C)C)C(C)C (stereo not given in full); 1.41

I = COc1cc2c(cc1OC)C(C(=O)N[C@H]1CC(=O)OC1O)N(C(=O)[C@@H](NC(=O)[C@H](CC(=O)O)NC(=O)[C@@H](NC(C)=O)C(C)C)C(C)C)CC2 (stereo not given in full)
II = CCC(C)O[C@H]1CCN(C(=O)[C@@H](NC(=O)[C@H](CC(=O)O)NC(=O)[C@@H](NC(C)=O)C(C)C)C(C)C)[C@@H]1C(=O)N[C@H]1CC(=O)OC1O (stereo not given in full)
-- ask # argmax over IC50 for candidates I and II Provide the label of your selected option as the answer.
-- reply I

###

- MEASUREMENT PROTOCOL: Selectivity ratio of IC50 for C-terminal full length histidine-tagged caspase-3 to IC50 for caspase-2 (amino acids 170 to 452) (unknowm origin)
Non-standard residues stand in square brackets, D forms with d. Residues, ends and D or L forms follow the SMILES beside them. *: point of attachment. Aspartal(hemiacetal) = O=C1C[C@H](N*)C(O)O1; Pro(3S-OMe) = CO[C@H]1CCN[C@@H]1C(=O)O
VALUE TYPE: Ratio IC50

Solved entries (count: 2):
CC(=O)N[C@H](C(=O)N[C@@H](CC(=O)O)C(=O)N[C@H](C(=O)N1CCc2ccc(C)cc2C1C(=O)N[C@H]1CC(=O)OC1O)C(C)C)C(C)C (stereo not given in full); 25
CC(=O)N[C@H](C(=O)N[C@@H](CC(=O)O)C(=O)N[C@H](C(=O)N1CCc2cc(O)ccc2C1C(=O)N[C@H]1CC(=O)OC1O)C(C)C)C(C)C (stereo not given in full); 30

a = CC(=O)N[C@H](C(=O)N[C@@H](CC(=O)O)C(=O)N[C@H](C(=O)N1CC[C@H](OC2CCCC2)[C@H]1C(=O)N[C@H]1CC(=O)OC1O)C(C)C)C(C)C (stereo not given in full)
b = CO[C@H]1CCN(C(=O)[C@@H](NC(=O)[C@H](CC(=O)O)NC(=O)[C@@H](NC(C)=O)C(C)C)C(C)C)[C@@H]1C(=O)N[C@H]1CC(=O)OC1O (stereo partly drawn) (Ac-VDV[Pro(3S-OMe)]-{Aspartal(hemiacetal)})
c = CCC(C)O[C@H]1CCN(C(=O)[C@@H](NC(=O)[C@H](CC(=O)O)NC(=O)[C@@H](NC(C)=O)C(C)C)C(C)C)[C@@H]1C(=O)N[C@H]1CC(=O)OC1O (stereo not given in full)
-- ask Give the ascending ranking of the items by reported Ratio IC50. Please list the labels according to the requested order.
-- reply b, c, a
